Test: recombinant UMI read abundance after kanamycin selection (control-corrected) (log10(CPM+1)); higher = more efficient recombination; extreme values may be limits of the assay; sequences stand for … in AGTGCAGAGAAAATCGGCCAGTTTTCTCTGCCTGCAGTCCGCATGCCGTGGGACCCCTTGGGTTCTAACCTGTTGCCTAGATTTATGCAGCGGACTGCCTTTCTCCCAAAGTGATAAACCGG…AGGTTGGTTTCACT; site = the 11-nt donor
The threshold is inclusive: recombinant UMI read abundance (log10) of exactly 0.01 counts as class 1; values below receive class 0.

See these solved cases before continuing.
ordered residues	assigned class
ACTAGTGCATGGACCGGTTTTCCCGGTAATCCGTATTTGGT (site ACAAGTGCTAC)	class 1
ATGTAGTCATGGACCGGTTTTCCCGGTAATCCGTATTTGGC (site ATGTAGTCTGC)	class 1
CGGACATCATGGACCGGTTTTCCCGGTAATCCGTATTTGCT (site CGGAGATCTAG)	class 0
CTAAGACCATGGACCGGTTTTCCCGGTAATCCGTATTTGCG (site CTAAGACCTCG)	class 1
GGGCGACCATGGACCGGTTTTCCCGGTAATCCGTATTTGTT (site GGGCGACCTAA)	class 0

Hello, I need to know if AATCCTCCATGGACCGGTTTTCCCGGTAATCCGTATTTGGA (site AATCCTCCTTC) has measured recombinant UMI read abundance (log10) not below 0.01. Thanks!
class 0

Likewise for TTGTCGACATGGACCGGTTTTCCCGGTAATCCGTATTTGTC (site TTGTCGACTGA) ?
class 1

Likewise for ACACTAGCATGGACCGGTTTTCCCGGTAATCCGTATTTGCA (site ACAGTATCTTG) ?
class 0

Likewise for ATTCAAGCATGGACCGGTTTTCCCGGTAATCCGTATTTGAG (site ATCCAAGCTCT) ?
class 1

Likewise for TGTTCACCATGGACCGGTTTTCCCGGTAATCCGTATTTGTA (site TGTTCGCCTTA) ?
class 0

Likewise for TGCTTATCATGGACCGGTTTTCCCGGTAATCCGTATTTGTG (site TGCTTATCTCA) ?
class 1

Likewise for CATTTGGCATGGACCGGTTTTCCCGGTAATCCGTATTTGGA (site CATTTGGCTTC) ?
class 1

Likewise for GTACGCCCATGGACCGGTTTTCCCGGTAATCCGTATTTGCA (site GTACGCCCTTG) ?
class 1

Likewise for CGGCGTACATGGACCGGTTTTCCCGGTAATCCGTATTTGCT (site CGTCGTACTAG) ?
class 0

Likewise for GGGCCAACATGGACCGGTTTTCCCGGTAATCCGTATTTGTA (site GGTCCAACTTA) ?
class 0

Likewise for CCTAAATCATGGACCGGTTTTCCCGGTAATCCGTATTTGAT (site CCTAAAGCTAT) ?
class 0

Likewise for CGCATATCATGGACCGGTTTTCCCGGTAATCCGTATTTGTC (site CCCATATCTGA) ?
class 0

Likewise for TCTTACCCATGGACCGGTTTTCCCGGTAATCCGTATTTGCA (site TCTTACCCTTG) ?
class 0

---

Test: recombinant barcode read abundance after kanamycin selection (control-corrected) (log10(CPM+1)); higher = more efficient recombination; sequences stand for … in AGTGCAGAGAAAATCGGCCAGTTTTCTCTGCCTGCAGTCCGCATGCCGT…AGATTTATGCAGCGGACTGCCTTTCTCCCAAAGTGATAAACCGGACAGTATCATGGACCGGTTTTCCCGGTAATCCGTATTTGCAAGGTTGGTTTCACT; site = the 11-nt target
quantity name: recombinant barcode read abundance (log10)
Please give the numeric answer without any surrounding text.

Sample records with recombinant barcode read abundance (log10):
ordered residues	measured result
GTGGACTCTTGGGTTCTAACCTGTTGCTA (site GTGTACTCTAA)	0.0609
CTCAGGTCTTGGGTTCTAACCTGTTGCCT (site CTCAGGTCTAG)	1.01

Quick one: recombinant barcode read abundance (log10) of TGCGACTCTTGGGTTCTAACCTGTTGCCT (site TGGGACTCTAG) ?
0.0561

Likewise for CGGGCGCCTTGGGTTCTAACCTGTTGCGG (site CGGCCGACTCC) ?
0.0157

---

Assay: recombinant barcode read abundance after kanamycin selection (control-corrected) (log10(CPM+1)); higher = more efficient recombination; sequences stand for … in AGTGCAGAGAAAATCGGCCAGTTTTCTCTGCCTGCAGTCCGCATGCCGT…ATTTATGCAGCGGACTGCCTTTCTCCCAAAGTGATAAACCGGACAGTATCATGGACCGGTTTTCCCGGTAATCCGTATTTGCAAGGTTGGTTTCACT; site = the 11-nt target
The threshold is inclusive: recombinant barcode read abundance (log10) of exactly 0.02 counts as criterion met; values below receive criterion not met.

See these solved cases before continuing.
ordered residues	assigned class
ATGCTTTGGTGGGTTCTAACCTGTTGCCTCC [ATGCTTTCTAG_LTGcore_GG_RTGcore_GG] (site ATGCTTTCTAG) (LTG core: GG, RTG core: GG)	criterion met
CGGTCCCCTTGGGTTCTAACCTGTTGCCATG [CGGTCCCCTTG_LTGcore_CT_RTGcore_CA] (site CGGTCCCCTTG) (LTG core: CT, RTG core: CA)	criterion met
CATATTAGATGGGTTCTAACCTGTTGCCTAG [CATATTACTAG_LTGcore_GA_RTGcore_CT] (site CATATTACTAG) (LTG core: GA, RTG core: CT)	criterion met
GAGGCCTCTTGGGTTCTAACCTGTTGCCATT [GAGGCCTCTTG_LTGcore_CT_RTGcore_AA] (site GAGGCCTCTTG) (LTG core: CT, RTG core: AA)	criterion met

Hello, I need to know if AAACAGTAGTGGGTTCTAACCTGTTGCCTCT [AAACAGTCTAG_LTGcore_AG_RTGcore_AG] (site AAACAGTCTAG) (LTG core: AG, RTG core: AG) has measured recombinant barcode read abundance (log10) not below 0.02. Thanks!
criterion met

Likewise for TCTACCCCCTGGGTTCTAACCTGTTGCTGAG [TCTACCCCTCA_LTGcore_CC_RTGcore_CT] (site TCTACCCCTCA) (LTG core: CC, RTG core: CT) ?
criterion met

Likewise for GTCGCCCTCTGGGTTCTAACCTGTTGCTAAG [GTCGCCCCTTA_LTGcore_TC_RTGcore_CT] (site GTCGCCCCTTA) (LTG core: TC, RTG core: CT) ?
criterion not met

Likewise for GGGCGGAATTGGGTTCTAACCTGTTGCGGAG [GGGCGGACTCC_LTGcore_AT_RTGcore_CT] (site GGGCGGACTCC) (LTG core: AT, RTG core: CT) ?
criterion met

Likewise for TGATACCCTTGGGTTCTAACCTGTTGCGTTA [TGATACCCTAC_LTGcore_CT_RTGcore_TA] (site TGATACCCTAC) (LTG core: CT, RTG core: TA) ?
criterion not met

Likewise for AGGCGGTAATGGGTTCTAACCTGTTGCTTTT [AGGCGGTCTAA_LTGcore_AA_RTGcore_AA] (site AGGCGGTCTAA) (LTG core: AA, RTG core: AA) ?
criterion met

---

Assay: recombinant barcode read abundance after kanamycin selection (control-corrected) (log10(CPM+1)); higher = more efficient recombination; sequences stand for … in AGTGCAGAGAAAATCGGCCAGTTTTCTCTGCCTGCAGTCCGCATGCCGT…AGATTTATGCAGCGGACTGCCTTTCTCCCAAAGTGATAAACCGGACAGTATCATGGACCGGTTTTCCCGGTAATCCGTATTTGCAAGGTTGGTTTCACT; site = the 11-nt target
We begin with a simple list: items and their reported recombinant barcode read abundance (log10).
Please give the numeric answer without any surrounding text.

Sample records with recombinant barcode read abundance (log10):
ordered residues	measured result
ACAGTTACTTGGGTTCTAACCTGTTGCAT (site TTGTGAGCTTG)	0.737
GATAGTTCTTGGGTTCTAACCTGTTGCCT (site GATAGTTCTAG)	0.264
TCGAGTACTTGGGTTCTAACCTGTTGCCT (site TCGAGTACTAG)	0.274

Quick one: recombinant barcode read abundance (log10) of ACTTGAGCTTGGGTTCTAACCTGTTGCAG (site CACGCTCCTAC) ?
0.167

Likewise for TGAAGTCCTTGGGTTCTAACCTGTTGCGG (site CGACGTCCTCC) ?
0.0219

Likewise for GGGTCCTCTTGGGTTCTAACCTGTTGCCG (site GGGTCCTCTAG) ?
1.32

Likewise for TCAGAATCTTGGGTTCTAACCTGTTGCCT (site TCAGGATCTAG) ?
0.371

Likewise for GGTAAGACTTGGGTTCTAACCTGTTGCCT (site GGTAAGACTAG) ?
1.47

Likewise for TATGAGGCTTGGGTTCTAACCTGTTGCCT (site TATGCGGCTAG) ?
0.26

Likewise for TTCTATGCTTGGGTTCTAACCTGTTGCGT (site TTCTATGCTAC) ?
0.131
